# Tested on: human hepatocyte growth factor receptor mRNA
experimental.readout: inhibition of human hepatocyte growth factor receptor expression

ISIS 209534: 2′-MOE gapmer, phosphorothioate backbone, sequence agcattacttcatataaggg (antisense AGCATTACTTCATATAAGGG; all phosphorothioate, sugars by position and methylation of C not given here; 2'-MOE gapmer)    at least 35%
ISIS 155114: 2′-MOE gapmer, phosphorothioate backbone, sequence aattgttgctttcaaaggca (antisense AATTGTTGCTTTCAAAGGCA; all phosphorothioate, sugars by position and methylation of C not given here; 2'-MOE gapmer)    at least 35%
ISIS 155102: 2′-MOE gapmer, phosphorothioate backbone, sequence gagaggcattgactgcagga (antisense GAGAGGCATTGACTGCAGGA; all phosphorothioate, sugars by position and methylation of C not given here; 2'-MOE gapmer)    at least 35%

###

# System: human hepatocyte growth factor receptor mRNA
# protocol.summary: Inhibition of human hepatocyte growth factor receptor mRNA levels in T-24 cells, quantitative real-time PCR
# test.settings: averages from three experiments
Strand notation (5' to 3'): a small letter for the sugar, then the base; units joined by * are phosphorothioate-linked, units joined directly phosphodiester-linked; [ ] holds rarer units or linkages, { } end groups; capitals alone tell only the bases. e = 2'-O-(2-methoxyethyl) (MOE); [5mC] = 5-methylcytosine; d = 2'-deoxy (DNA)
Reported % INHIB (inhibition of human hepatocyte growth factor receptor mRNA levels) by item:
Lab book: enter the figure in %, no units written.

Past entries and their recorded results:
155128 (antisense eA*e[5mC]*eT*eG*eT*dG*dA*dA*dT*dT*dT*dT*dT*d[5mC]*dA*eT*e[5mC]*e[5mC]*eA*eG) [compound 155128]    83
209545 (antisense eA*eA*eT*eA*e[5mC]*dA*dA*dG*dT*d[5mC]*d[5mC]*dT*dA*dT*dA*eA*eT*eA*eG*eT) [compound 209545]    10
209551 (antisense e[5mC]*eT*eT*eG*eG*dG*dA*dG*dG*d[5mC]*dG*dA*dG*dT*dG*eT*e[5mC]*eA*e[5mC]*e[5mC]) [compound 209551]    0
209524 (antisense e[5mC]*eT*e[5mC]*eA*eT*dG*dT*dA*dG*dA*dA*dT*dG*dA*d[5mC]*eA*eT*eT*e[5mC]*eT) [compound 209524]    95
155114 (antisense eA*eA*eT*eT*eG*dT*dT*dG*d[5mC]*dT*dT*dT*d[5mC]*dA*dA*eA*eG*eG*e[5mC]*eA) [compound 155114]    94

// next item, % INHIB (inhibition of human hepatocyte growth factor receptor mRNA levels) requested
Problem: So what's the measured % INHIB (inhibition of human hepatocyte growth factor receptor mRNA levels) for this one? 155126 (antisense e[5mC]*eT*eG*eT*eG*d[5mC]*dA*dT*dT*dT*d[5mC]*dA*dA*dT*dG*eT*eA*eT*eT*e[5mC]) [compound 155126]
Result: 68

###

Here's a batch of substances along with measured inhibition of human hepatocyte growth factor receptor expression for human hepatocyte growth factor receptor mRNA.
experimental.readout: inhibition of human hepatocyte growth factor receptor expression

ISIS 155108: 2′-MOE gapmer, phosphorothioate backbone, sequence attctcgggacactaactga (antisense ATTCTCGGGACACTAACTGA; all phosphorothioate, sugars by position and methylation of C not given here; 2'-MOE gapmer)    at least 35%
ISIS 155121: 2′-MOE gapmer, phosphorothioate backbone, sequence tgaaaggactttggctccca (antisense TGAAAGGACTTTGGCTCCCA; all phosphorothioate, sugars by position and methylation of C not given here; 2'-MOE gapmer)    at least 35%
ISIS 155125: 2′-MOE gapmer, phosphorothioate backbone, sequence ggaaactgatcttctggaaa (antisense GGAAACTGATCTTCTGGAAA; all phosphorothioate, sugars by position and methylation of C not given here; 2'-MOE gapmer)    at least 35%

###

# Test system: human hepatocyte growth factor receptor mRNA
# protocol.summary: Inhibition of human hepatocyte growth factor receptor mRNA levels in T-24 cells, quantitative real-time PCR
# test.settings: averages from three experiments
Strand notation (5' to 3'): a small letter for the sugar, then the base; units joined by * are phosphorothioate-linked, units joined directly phosphodiester-linked; [ ] holds rarer units or linkages, { } end groups; capitals alone tell only the bases. e = 2'-O-(2-methoxyethyl) (MOE); [5mC] = 5-methylcytosine; d = 2'-deoxy (DNA)
experimental.readout: % INHIB (inhibition of human hepatocyte growth factor receptor mRNA levels) (%)
Lab book: enter the figure in %, no units written.

Past entries and their recorded results:
155107 (antisense eT*e[5mC]*e[5mC]*eG*e[5mC]*dG*dG*dT*dG*dA*dA*dG*dT*dT*dG*eG*eG*eA*eA*eG) [compound 155107]    42
155106 (antisense e[5mC]*eA*e[5mC]*eA*eA*d[5mC]*d[5mC]*dT*dG*d[5mC]*dA*dT*dG*dA*dA*eG*e[5mC]*eG*eA*e[5mC]) [compound 155106]    66
155099 (antisense e[5mC]*eA*eG*eG*eT*dT*dT*dT*dT*d[5mC]*d[5mC]*d[5mC]*dA*dA*d[5mC]*eA*e[5mC]*e[5mC]*eT*eG) [compound 155099]    77
155098 (antisense eT*e[5mC]*eA*eG*eA*dA*dG*dT*dG*dT*d[5mC]*d[5mC]*dT*dA*dT*eT*eA*eA*eA*eG) [compound 155098]    48
209523 (antisense eG*eG*eG*e[5mC]*e[5mC]*dT*dT*d[5mC]*dA*dT*dT*dA*dT*dG*dA*eG*eA*eG*eG*eT) [compound 209523]    84

// next item, % INHIB (inhibition of human hepatocyte growth factor receptor mRNA levels) requested
Problem: So what's the measured % INHIB (inhibition of human hepatocyte growth factor receptor mRNA levels) for this one? 155122 (antisense eA*eA*eG*e[5mC]*e[5mC]*dT*dA*dT*d[5mC]*d[5mC]*dA*dA*dA*dT*dG*eA*eG*eG*eA*eG) [compound 155122]
Result: 69

###

# Test system: human hepatocyte growth factor receptor mRNA
experimental.readout: inhibition of human hepatocyte growth factor receptor expression

ISIS 209539: 2′-MOE gapmer, phosphorothioate backbone, sequence gcttccccattgctgttagg (antisense GCTTCCCCATTGCTGTTAGG; all phosphorothioate, sugars by position and methylation of C not given here; 2'-MOE gapmer)    at least 35%
ISIS 209525: 2′-MOE gapmer, phosphorothioate backbone, sequence ctggtccgtcaaaaacataa (antisense CTGGTCCGTCAAAAACATAA; all phosphorothioate, sugars by position and methylation of C not given here; 2'-MOE gapmer)    at least 35%

###

# System: human hepatocyte growth factor receptor mRNA
# protocol.summary: Inhibition of human hepatocyte growth factor receptor mRNA levels in T-24 cells, quantitative real-time PCR
# test.settings: averages from three experiments
Strand notation (5' to 3'): a small letter for the sugar, then the base; units joined by * are phosphorothioate-linked, units joined directly phosphodiester-linked; [ ] holds rarer units or linkages, { } end groups; capitals alone tell only the bases. e = 2'-O-(2-methoxyethyl) (MOE); [5mC] = 5-methylcytosine; d = 2'-deoxy (DNA)
Quick rule for you: % INHIB (inhibition of human hepatocyte growth factor receptor mRNA levels) at 40% or higher means 1, lower means 0.

Problem: Textbook exercise: given the entry 155133 (antisense eA*eA*eA*e[5mC]*e[5mC]*dA*dT*dT*dT*d[5mC]*dT*dG*dT*dA*dG*eT*eT*eG*eG*eG) [compound 155133] , state whether its % INHIB (inhibition of human hepatocyte growth factor receptor mRNA levels) is greater than or equal to 40%.
Result: 1

Problem: Would you kindly repeat that for 209534 (antisense eA*eG*e[5mC]*eA*eT*dT*dA*d[5mC]*dT*dT*d[5mC]*dA*dT*dA*dT*eA*eA*eG*eG*eG) [compound 209534] ?
Result: 0

Problem: Would you kindly repeat that for 209521 (antisense eG*eG*eA*eA*e[5mC]*d[5mC]*dA*dG*dT*dG*dG*dA*dG*dA*dA*eG*eT*e[5mC]*eA*eG) [compound 209521] ?
Result: 1

Problem: Would you kindly repeat that for 209538 (antisense eT*eG*eT*eG*eA*d[5mC]*dT*dT*dA*d[5mC]*d[5mC]*d[5mC]*dT*dA*dT*eT*eA*eA*eA*eG) [compound 209538] ?
Result: 0

Problem: Would you kindly repeat that for 209537 (antisense eA*eG*eA*eG*eG*dT*dT*dT*dA*dT*d[5mC]*dT*dG*d[5mC]*d[5mC]*eA*eA*eA*eA*e[5mC]) [compound 209537] ?
Result: 1

###

# Test system: human hepatocyte growth factor receptor mRNA
experimental.readout: inhibition of human hepatocyte growth factor receptor expression

ISIS 209546: 2′-MOE gapmer, phosphorothioate backbone, sequence aattcaagttttggactcca (antisense AATTCAAGTTTTGGACTCCA; all phosphorothioate, sugars by position and methylation of C not given here; 2'-MOE gapmer)    at least 35%
ISIS 155117: 2′-MOE gapmer, phosphorothioate backbone, sequence gtagattgcaggcagacaga (antisense GTAGATTGCAGGCAGACAGA; all phosphorothioate, sugars by position and methylation of C not given here; 2'-MOE gapmer)    at least 35%
ISIS 155107: 2′-MOE gapmer, phosphorothioate backbone, sequence tccgcggtgaagttgggaag (antisense TCCGCGGTGAAGTTGGGAAG; all phosphorothioate, sugars by position and methylation of C not given here; 2'-MOE gapmer)    at least 35%
